- System: M14 melanoma
- assay-text: NCI-60 one-dose screen, 48 h (100 = growth as untreated, 0 = no growth, -100 = all killed)
- conditions: 10 µM unless noted
This is part of a sample that, as a whole, favours compounds with a hit. Of some 83,000 tested, about 20% had one in any assay.
Field 'label' (enum: Satisfied / Not satisfied). Set to Satisfied when growth is strictly under 20%; else Not satisfied.

In [3]: df
Out[3]:
                                smiles_code            cat
0  CCc1cc(O)ccc1Nc1cc(-c2ccc(-n3cccn3)cc2)[nH]n1  Not satisfied
1  CNC(=O)c1cc(-c2ccc(NC(=S)Nc3cccc(C(F)(F)F)c3)cc2)nc2cccnc12  Not satisfied
2  Brc1ccc(-c2cc(-c3ccc4c(c3)OCCO4)n[nH]2)s1  Not satisfied
3  C=C(C)[C@@H]1CC[C@]2(COCCCNCCCN)CC[C@]3(C)[C@H](CC[C@@H]4[C@@]5(C)CC[C@H](O)C(C)(C)[C@@H]5CC[C@]43C)[C@@H]12      Satisfied

Attention now shifts to the item below.
[in] Just wondering, is growth of `CCn1c2ccc(/C=N/N(C)S(=O)(=O)CCN(C)C)cc2c2cc(/C=N/N(C)S(=O)(=O)CCN(C)C)ccc21` below 20%?
[out] Not satisfied

* * *

- System: SK-MEL-2 melanoma
- assay-text: NCI-60 one-dose screen, 48 h
- conditions: 10 µM unless noted
This is part of a sample that, as a whole, favours compounds with a hit. Of some 83,000 tested, about 20% had one in any assay. Activity calls are given as the source filed them. How the source made its calls: active means growth percent below 10; inactive means the rest.
Write down one outcome, taken from true = active, false = inactive

These recorded examples may help you get a feel for the data.
>>> print(df.to_string())
                                   compound    cat
0  O=C1c2ccccc2C23C(=C(c4cncnc4)c4ccccc42)CCCN13 (stereo not drawn)  false
1  Nn1c(=O)n(-c2cccc(C(F)(F)F)c2)c(=O)c2cc(-c3ccc(F)cc3F)ccc21   true

Attention now shifts to the item below.
[in] Could you check what this test reported for `C/C(=C(\c1ccc(O)cc1)c1ccc(OCCN2CCCCCC2)cc1)c1ccc(Cl)cc1` ?
[out] true

* * *

- Test system: SK-MEL-2 melanoma
- assay-text: NCI-60 one-dose screen, 48 h (100 = growth as untreated, 0 = no growth, -100 = all killed)
- conditions: 10 µM unless noted
The panel holds about 83,000 compounds, 20% with a hit somewhere; the sample as a whole holds those more often.
Entries annotated with measured growth
Numbers only here, please. The scale is %.

>>> df
                                smiles_code  reported
0  Cc1ccc2c(n1)C(=O)C(Cl)=C(Nc1cc(C(F)(F)F)cc(C(F)(F)F)c1)C2=O      74.5
1    CC(=O)/C(N=Nc1ccc2oc(=O)ccc2c1)=C(\C)O     0.338
2  N#Cc1nc(-c2ccccc2)oc1N1CCC(C2(C(F)(F)F)N=N2)CC1      97.8
3  CC(=O)Nc1cc(N2CCOCC2)c2nc(NC(=O)c3[nH]c(C)c(Cl)c3Cl)sc2c1        83
4  NC1=NC2(CCCC2)N(c2ccc(S(=O)(=O)Nc3nccs3)cc2)C(N)=N1       116

[in] Looking for the measured growth of `C/C(=N/N)c1nnn(-c2ccc(Br)cc2)c1C` , can you help?
[out] 112

[in] Looking for the measured growth of `CC(=O)Nc1nc(C)c(-c2csc(Nc3ccccc3)n2)s1` , can you help?
[out] 18.8

[in] Looking for the measured growth of `O=C(/C=C/Nc1ccc(S(=O)(=O)Nc2ncccn2)cc1)c1ccc(N=Cc2c(O)[nH]c3ccccc23)cc1` , can you help?
[out] 118

[in] Looking for the measured growth of `COc1cc(/C=N\NC(=O)c2ccc3nc(-c4ccc(Br)cc4)[nH]c3c2)cc(OC)c1OC` , can you help?
[out] 60.2

[in] Looking for the measured growth of `CCOC(=O)c1cccc(NC2=C(Cl)C(=O)c3nc(C)ccc3C2=O)c1` , can you help?
[out] 105

[in] Looking for the measured growth of `O=C(CCCCCCN1CC(=O)N2[C@@H](C3CC3)c3[nH]c4ccccc4c3C[C@H]2C1=O)NO` , can you help?
[out] 76.5

[in] Looking for the measured growth of `CC(C)(O)c1cncc(-c2ccc3ncc(C#N)c(N4CCc5cc(F)c(Cl)cc54)c3c2)c1` , can you help?
[out] -5.06

[in] Looking for the measured growth of `NNc1nnc2nc(Nc3ccccc3)nc(Nc3ccc(S(N)(=O)=O)cc3)n12` , can you help?
[out] 111

[in] Looking for the measured growth of `COc1ccccc1N1CCN(C2=C(Cl)C(=O)c3ncccc3C2=O)CC1` , can you help?
[out] 95.5

[in] Looking for the measured growth of `C#CCOc1cccc(/C(N)=N/C(N)=N/c2nc3ccccc3s2)c1` , can you help?
[out] 103

[in] Looking for the measured growth of `COc1ccc2c(c1)c(-c1nc(N)nnc1-c1c[nH]c3ccccc13)cn2C` , can you help?
[out] 52.6
